The origin of these recorded values is the Immune Epitope Database (IEDB).

# target.or.test.system: HLA-B*57:01
# assay.remarks: IEDB peptide-MHC binding, purified MHC/competitive/radioactivity; filed as Kd, often an IC50 or EC50 that approximates it; bounds were set here for any values at or beyond the usual limits of such assays
# condition.parameters: source organism: Dengue virus 4 Dominica/814669/1981
measurement.label: Kd (µM)

>>> readout_number("ATGPILTLW")
0.00807
>>> readout_number("TASLVMLLVH")
7.39

----------
# target.or.test.system: HLA-B*27:05
# assay.remarks: IEDB peptide-MHC binding, purified MHC/direct/fluorescence; filed as Kd, often an IC50 or EC50 that approximates it; bounds were set here for any values at or beyond the usual limits of such assays
# condition.parameters: source organism: Yersinia pestis
measurement.label: Kd

>>> result("TMPELAWAV")
"≥ 20 µM"
